Target: T1, human claudin 6 (CLDN6) (human, UniProt P56747 1-220)
T1 construct: also called human CLDN6; hCLDN6
T1 sequence: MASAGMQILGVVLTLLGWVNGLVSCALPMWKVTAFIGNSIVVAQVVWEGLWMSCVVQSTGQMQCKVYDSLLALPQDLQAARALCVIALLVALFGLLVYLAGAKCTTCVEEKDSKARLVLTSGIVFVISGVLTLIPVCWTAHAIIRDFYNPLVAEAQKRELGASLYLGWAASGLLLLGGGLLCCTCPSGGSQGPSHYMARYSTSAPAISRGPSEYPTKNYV
Assay: FACS, HEK293T-hCLDN6 cells
assay_readout: FACS Emax ratio to BG87P (ratio)
Numbers only here, please. The scale is ratio.

Some binders with recorded FACS Emax ratio to BG87P:
binder	assay_readout	experimental_result
BG87P-34 (antibody, V domains shown, Framework-swapped final lead (IGHV3-23 / IGKV1-39); also called BG87-34) VH: EVQLQESGGGLVQPGGSLRLSCAASGYSFSDYHINWVRQAPGKGLEWVGYIYPGSGHTKYNEKFKGRFTISRDTSSNTAYLQMNSLRAEDTAVYYCARSGIYHYVSSYYFDHWGQGTLVTVSS VL: DIQMTQSPSSLSASVGDRVTITCKASQDAGSAVAWYQQKPGKAPKLLIYWASTRHTGVPSRFSGSGSGTDFTLTISSLQPEDFATYYCQQYSSYTFGGGTKLEIK	FACS Emax ratio to BG87P	1.03
BG87P-32 (antibody, V domains shown, Solubility engineering variant of BG87P-21) VH: QVQLQQSGAETKKPGASVKVSCKASGYSFTDYHINWVRQASGQRLEWMGYIYPGSGHTKKNEKFKGRVTITRDTSASTAYMELSSLRSEDTAVYYCARSGIYHYVSSYYFDHWGKGTTVTVSS VL: DIQMTQSPSTLSASVGDRVTITCKASQDAGSAVAWYQQKPGKAPKLLIYWASTRHTGVPSRFSGSGSGTEFTLTISSLQPDDFATYYCQQYSSYTFGGGTKVEIK	FACS Emax ratio to BG87P	0.63

Now turn to the next binder.
Q: Would you kindly share the measured FACS Emax ratio to BG87P for chimeric BG87P antibody (chBG87P) (antibody, V domains shown) VH: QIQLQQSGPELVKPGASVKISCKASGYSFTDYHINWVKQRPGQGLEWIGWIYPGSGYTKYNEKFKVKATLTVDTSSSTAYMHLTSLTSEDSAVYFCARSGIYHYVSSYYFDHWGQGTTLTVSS VL: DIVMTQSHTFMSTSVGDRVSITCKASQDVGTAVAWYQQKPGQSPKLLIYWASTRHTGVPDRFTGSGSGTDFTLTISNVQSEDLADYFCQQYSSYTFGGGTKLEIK ?
Result: 1
